inhibition at 10 µM values by entry
- ASSAYED SYSTEM: human SIRT1 (Homo sapiens, UniProt Q96EB6)
- Sequence (Q96EB6 whole entry): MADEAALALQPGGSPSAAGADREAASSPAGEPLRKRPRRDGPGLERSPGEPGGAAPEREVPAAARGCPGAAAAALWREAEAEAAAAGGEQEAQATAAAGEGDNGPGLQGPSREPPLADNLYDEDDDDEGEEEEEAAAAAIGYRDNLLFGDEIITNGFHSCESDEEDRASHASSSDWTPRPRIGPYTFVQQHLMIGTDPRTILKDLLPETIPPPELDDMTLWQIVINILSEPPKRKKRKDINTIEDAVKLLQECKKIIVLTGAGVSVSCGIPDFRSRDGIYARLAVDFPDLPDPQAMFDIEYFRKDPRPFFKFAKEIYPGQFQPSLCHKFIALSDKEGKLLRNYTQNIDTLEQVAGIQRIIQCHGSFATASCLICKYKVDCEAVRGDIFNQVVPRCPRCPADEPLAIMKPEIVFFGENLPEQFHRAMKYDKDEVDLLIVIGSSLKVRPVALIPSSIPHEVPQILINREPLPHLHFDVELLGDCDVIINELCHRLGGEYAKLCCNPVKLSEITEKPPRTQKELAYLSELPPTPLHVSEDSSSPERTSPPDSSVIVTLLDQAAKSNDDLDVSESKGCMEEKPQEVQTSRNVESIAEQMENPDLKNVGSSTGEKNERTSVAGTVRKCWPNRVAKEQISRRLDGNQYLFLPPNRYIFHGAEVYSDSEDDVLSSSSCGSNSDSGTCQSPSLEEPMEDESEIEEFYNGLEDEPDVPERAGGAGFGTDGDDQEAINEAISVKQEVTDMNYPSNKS
- ASSAY PROTOCOL: hSIRT1 deacetylase inhibition (CycLex kit)
- Format: biochemical
- PARTICULARS: 10 µM; n=2; N.I. = no inhibition; read-out: hSIRT1 Inhibition at 10 µM (% ± SD)
Write the value in % as a bare number.

| MOLECULE | inhibition at 10 µM [%] |
| --- | --- |
| O=C1c2cccc3cccc(c23)C(=O)N1CCCNCCOCCOCCNCCCN1C(=O)c2cccc3cccc(c23)C1=O | 3 |
| O=C1c2cccc3c(Cl)ccc(c23)C(=O)N1CCCN1CCN(CCCN2C(=O)c3cccc4c(Cl)ccc(c34)C2=O)CC1 | 15 |
| O=C1c2cccc3cccc(c23)C(=O)N1CCCNC1CCC(CC2CCC(NCCCN3C(=O)c4cccc5cccc(c45)C3=O)CC2)CC1 (centres unmarked) | 44 |
| O=C1c2cccc3cccc(c23)C(=O)N1CCCN1CCC(CCCC2CCN(CCCN3C(=O)c4cccc5cccc(c45)C3=O)CC2)CC1 | 3 |

Now let's try a different one.
-- ask Which inhibition at 10 µM is listed for O=C1c2cccc3cccc(c23)C(=O)N1CCCNc1ccc(Cc2ccc(NCCCN3C(=O)c4cccc5cccc(c45)C3=O)cc2)cc1 ?
-- reply 8
